System: Escherichia coli
Test: Bactericidal activity against Escherichia coli F-50 after 4 hrs
Type: functional
Details: F-50, 4 h
Exercise: state measured MBC for each of the compounds provided.

CCCCCCCCC[n+]1cccc(-c2nc(-c3ccccc3)c3c(=O)n(CCCCCC)c4ccccc4n23)c1.[Br-]; 500 µg/mL
CCCCCCCCCn1c(=O)c2c(-c3ccccc3)nc(-c3ccc[n+](CCCCCCCCC)c3)n2c2ccccc21.[I-]; > 500 µg/mL
CCCCCCCCC[n+]1cccc(-c2nc(-c3ccccc3)c3c(=O)n(CCCCCC)c4ccccc4n23)c1.[I-]; > 500 µg/mL

Now look at this entry.
Qu. Supply recorded MBC for "CCCCCCCCCn1c(=O)c2c(-c3ccccc3)nc(-c3ccc[n+](CCCCCCCCC)c3)n2c2ccccc21.[Br-]" here.
Ans. > 500 µg/mL

* * *

Task for the reader: assign each of the following molecules its reported MFC.
Tested on: Candida albicans
Experiment: Fungicidal activity against Candida albicans 885-653 after 6 hrs
Format: functional
Settings: 885-653, 6 h
One number for each entry, in µg/mL.

// worked examples, MFC included
C[C@@H]1[C@H](O)[C@@H](C)/C=C/C=C/C=C/C=C/C=C/C=C/C=C/[C@H](O[C@@H]2O[C@H](C)[C@@H](O)[C@H](N)[C@@H]2O)C[C@@H]2O[C@](O)(C[C@@H](O)C[C@@H](O)[C@H](O)CC[C@@H](O)C[C@@H](O)CC(=O)O[C@H]1C)C[C@H](O)[C@H]2C(=O)O; 50
CCCCCCn1c(=O)c2c(-c3ccccc3)nc(-c3ccc[n+](Cc4ccccc4)c3)n2c2ccccc21.[Cl-]; 500
CCCCCCCCCn1c(=O)c2c(-c3ccccc3)nc(-c3ccc[n+](Cc4ccccc4)c3)n2c2ccccc21.[Cl-]; 500

Return reported MFC values for all items listed beneath this line.
1. Clc1ccccc1C(c1ccccc1)(c1ccccc1)n1ccnc1
2. CCCCCCCCC[n+]1cccc(-c2nc(-c3ccccc3)c3c(=O)n(CCCCCC)c4ccccc4n23)c1.[Br-]
3. CCCCCCCCCn1c(=O)c2c(-c3ccccc3)nc(-c3ccc[n+](CCCCCCCCC)c3)n2c2ccccc21.[Br-]
4. CCCCCCCCC[n+]1cccc(-c2nc(-c3ccccc3)c3c(=O)n(CCCCCC)c4ccccc4n23)c1.[I-]

Ans.
1: 0.39; 2: 50; 3: 500; 4: 500

* * *

System: Bacillus cereus
Test: Antibacterial activity against Bacillus cereus 8035 measured every 24 hrs for 5 days by conventional dilution method
Assay type: functional
quantity: MIC (µg/mL)
One number for each entry, in µg/mL.

Some solved entries appear below for comparison.
CCCn1c(=O)c2c(-c3ccccc3)nc(-c3ccc[n+](Cc4ccccc4)c3)n2c2ccccc21.[Cl-]; 125
CCCCCCn1c(=O)c2c(-c3ccccc3)nc(-c3ccc[n+](Cc4ccccc4)c3)n2c2ccccc21.[Cl-]; 6.3
O=C(O)c1cn(C2CC2)c2cc(N3CCNCC3)c(F)cc2c1=O [CIPROFLOXACIN]; 0.25
CCCCCCCCC[n+]1cccc(-c2nc(-c3ccccc3)c3c(=O)n(CCCCCC)c4ccccc4n23)c1.[I-]; 0.78
CCCCCCCCCn1c(=O)c2c(-c3ccccc3)nc(-c3ccc[n+](CCCCCCCCC)c3)n2c2ccccc21.[I-]; 7.8
CCCCCC[n+]1cccc(-c2nc(-c3ccccc3)c3c(=O)[nH]c4ccccc4n23)c1.[Br-]; 125

Your task in this section: give MIC for each listed record.
1. CCCCCCCCC[n+]1cccc(-c2nc(-c3ccccc3)c3c(=O)n(CCCCCC)c4ccccc4n23)c1.[Br-]
2. CCCCCCn1c(=O)c2c(-c3ccccc3)nc(-c3ccc[n+](Cc4cccc(C[n+]5cccc(-c6nc(-c7ccccc7)c7c(=O)n(CCCCCC)c8ccccc8n67)c5)c4)c3)n2c2ccccc21.[Br-].[Br-]
3. CCCCCCCCCn1c(=O)c2c(-c3ccccc3)nc(-c3ccc[n+](Cc4ccccc4)c3)n2c2ccccc21.[Cl-]
4. CCCCCCCCCn1c(=O)c2c(-c3ccccc3)nc(-c3ccc[n+](CCCCCCCCC)c3)n2c2ccccc21.[Br-]
5. CCCCCCn1c(=O)c2c(-c3ccccc3)nc(-c3ccc[n+](CCCCCC)c3)n2c2ccccc21.[I-]
6. O=c1[nH]c2ccccc2n2c(-c3ccc[n+](Cc4ccccc4)c3)nc(-c3ccccc3)c12.[Cl-]

Ans.
1: 0.97; 2: 62.5; 3: 12.5; 4: 6.3; 5: 62.5; 6: 125

* * *

Test: Acute toxicity in ip dosed mouse
Assay type: organism-based
Conditions: in vivo
Non-standard residues stand in square brackets, D forms with d. Residues, ends and D or L forms follow the SMILES beside them. Orn = NCCC[C@H](N)C(=O)O
I'd appreciate it if you could supply LD50 values for the items below.
Give bare numbers, in mg/kg.

Hey, quick one: what's LD50 for each of these?
1. CCCCCCCCC[n+]1cccc(-c2nc(-c3ccccc3)c3c(=O)n(CCCCCC)c4ccccc4n23)c1.[Br-]
2. CCCCCC[n+]1cccc(-c2nc(-c3ccccc3)c3c(=O)[nH]c4ccccc4n23)c1.[Br-]
3. CCCC[n+]1cccc(-c2nc(-c3ccccc3)c3c(=O)[nH]c4ccccc4n23)c1.[I-]
4. C[C@@H]1[C@H](O)[C@@H](C)/C=C/C=C/C=C/C=C/C=C/C=C/C=C/[C@H](O[C@@H]2O[C@H](C)[C@@H](O)[C@H](N)[C@@H]2O)C[C@@H]2O[C@](O)(C[C@@H](O)C[C@@H](O)[C@H](O)CC[C@@H](O)C[C@@H](O)CC(=O)O[C@H]1C)C[C@H](O)[C@H]2C(=O)O
5. CCCCCCCCCn1c(=O)c2c(-c3ccccc3)nc(-c3ccc[n+](Cc4cccc(C[n+]5cccc(-c6nc(-c7ccccc7)c7c(=O)n(CCCCCCCCC)c8ccccc8n67)c5)c4)c3)n2c2ccccc21.[Br-].[Br-]
6. CC(C)C[C@@H]1NC(=O)[C@H](CCCN)NC(=O)[C@H](C(C)C)NC(=O)[C@@H]2CCCN2C(=O)[C@@H](Cc2ccccc2)NC(=O)[C@H](CC(C)C)NC(=O)[C@H](CCCN)NC(=O)[C@H](C(C)C)NC(=O)[C@@H]2CCCN2C(=O)[C@@H](Cc2ccccc2)NC1=O [GRAMICIDIN S] (cyclo(L[dF]PV[Orn]L[dF]PV[Orn]))
7. CCCCCCCCC[n+]1cccc(-c2nc(-c3ccccc3)c3c(=O)n(CCCCCC)c4ccccc4n23)c1.[I-]

Ans.
1. 120
2. 75.8
3. 63.2
4. 27.7
5. 108
6. 26
7. 52.5

Please look at the items below and tell me LD50 for each one, in order.
1. CCCCCCn1c(=O)c2c(-c3ccccc3)nc(-c3ccc[n+](Cc4ccccc4)c3)n2c2ccccc21.[Cl-]
2. O=c1[nH]c2ccccc2n2c(-c3ccc[n+](Cc4ccccc4)c3)nc(-c3ccccc3)c12.[Cl-]

Ans.
1: 61.1; 2: 65.7

* * *

Could you please report measured MIC for the items listed next?
Test system: Bacillus cereus
Assay: Antibacterial activity against Bacillus cereus 8035 measured every 24 hrs for 5 days by conventional dilution method
Assay type: functional

O=c1c2c(-c3ccccc3)nc3n2c2ccccc2n1CCCCCCCCCCn1c(=O)c2c(-c4ccccc4)nc(n2c2ccccc21)-c1ccc[n+](c1)Cc1cccc(c1)C[n+]1cccc-3c1.[Br-].[Br-]; > 500 µg/mL

Parameters: items (list). Returns: MIC for each item.
1. Cl.O=c1[nH]c2ccccc2n2c(-c3ccccn3)nc(-c3ccccc3)c12
2. CCCCCCCCCCCCCCCCCCn1c(=O)c2c(-c3ccccc3)nc(-c3ccc[n+](Cc4ccccc4)c3)n2c2ccccc21.[Cl-]
3. CCCC[n+]1cccc(-c2nc(-c3ccccc3)c3c(=O)[nH]c4ccccc4n23)c1.[I-]
4. O=c1[nH]c2ccccc2n2c(-c3ccc[n+](CCCCCC[n+]4cccc(-c5nc(-c6ccccc6)c6c(=O)[nH]c7ccccc7n56)c4)c3)nc(-c3ccccc3)c12.[Br-].[Br-]
5. Cc1nc(-c2ccc[n+](Cc3ccccc3)c2)n2c1c(=O)[nH]c1ccccc12.[Cl-]
6. CCn1cc(C(=O)O)c(=O)c2cc(F)c(N3CCNCC3)cc21

Ans.
["> 500 µg/mL", "> 500 µg/mL", "> 500 µg/mL", "> 500 µg/mL", "> 500 µg/mL", "7.8 µg/mL"]

* * *

Assignment: determine reported MIC for the given compounds.
System: Bacillus cereus
Experiment: Antibacterial activity against Bacillus cereus 8035 measured every 24 hrs for 5 days by conventional dilution method
Type: functional

Working through the 6 compounds below one at a time, give MIC for each.
1. CCCCCCCCCn1c(=O)c2c(-c3ccccc3)nc(-c3ccc[n+](CCCCCC)c3)n2c2ccccc21.[I-]
2. Cn1c(=O)c2c(-c3ccccc3)nc(-c3ccc[n+](Cc4ccccc4)c3)n2c2ccccc21.[Cl-]
3. CC1COc2c(N3CCN(C)CC3)c(F)cc3c(=O)c(C(=O)O)cn1c23 (stereo unspecified) [OFLOXACIN]
4. CCCCCCCCCn1c(=O)c2c(-c3ccccc3)nc(-c3ccc[n+](Cc4cccc(C[n+]5cccc(-c6nc(-c7ccccc7)c7c(=O)n(CCCCCCCCC)c8ccccc8n67)c5)c4)c3)n2c2ccccc21.[Br-].[Br-]
5. O=c1[nH]c2ccccc2n2c(-c3ccc[n+](CCCC[n+]4cccc(-c5nc(-c6ccccc6)c6c(=O)[nH]c7ccccc7n56)c4)c3)nc(-c3ccccc3)c12.[Br-].[Br-]
6. Cl.O=c1[nH]c2ccccc2n2c(-c3cccnc3)nc(-c3ccccc3)c12

Ans.
125 µg/mL
125 µg/mL
1.5 µg/mL
15.6 µg/mL
> 500 µg/mL
> 500 µg/mL
